# Measurement Target: TRPM8 Y1005F (Mus musculus, UniProt Q8R4D5, Y1005F)
# Sequence (Q8R4D5 whole entry Y1005F): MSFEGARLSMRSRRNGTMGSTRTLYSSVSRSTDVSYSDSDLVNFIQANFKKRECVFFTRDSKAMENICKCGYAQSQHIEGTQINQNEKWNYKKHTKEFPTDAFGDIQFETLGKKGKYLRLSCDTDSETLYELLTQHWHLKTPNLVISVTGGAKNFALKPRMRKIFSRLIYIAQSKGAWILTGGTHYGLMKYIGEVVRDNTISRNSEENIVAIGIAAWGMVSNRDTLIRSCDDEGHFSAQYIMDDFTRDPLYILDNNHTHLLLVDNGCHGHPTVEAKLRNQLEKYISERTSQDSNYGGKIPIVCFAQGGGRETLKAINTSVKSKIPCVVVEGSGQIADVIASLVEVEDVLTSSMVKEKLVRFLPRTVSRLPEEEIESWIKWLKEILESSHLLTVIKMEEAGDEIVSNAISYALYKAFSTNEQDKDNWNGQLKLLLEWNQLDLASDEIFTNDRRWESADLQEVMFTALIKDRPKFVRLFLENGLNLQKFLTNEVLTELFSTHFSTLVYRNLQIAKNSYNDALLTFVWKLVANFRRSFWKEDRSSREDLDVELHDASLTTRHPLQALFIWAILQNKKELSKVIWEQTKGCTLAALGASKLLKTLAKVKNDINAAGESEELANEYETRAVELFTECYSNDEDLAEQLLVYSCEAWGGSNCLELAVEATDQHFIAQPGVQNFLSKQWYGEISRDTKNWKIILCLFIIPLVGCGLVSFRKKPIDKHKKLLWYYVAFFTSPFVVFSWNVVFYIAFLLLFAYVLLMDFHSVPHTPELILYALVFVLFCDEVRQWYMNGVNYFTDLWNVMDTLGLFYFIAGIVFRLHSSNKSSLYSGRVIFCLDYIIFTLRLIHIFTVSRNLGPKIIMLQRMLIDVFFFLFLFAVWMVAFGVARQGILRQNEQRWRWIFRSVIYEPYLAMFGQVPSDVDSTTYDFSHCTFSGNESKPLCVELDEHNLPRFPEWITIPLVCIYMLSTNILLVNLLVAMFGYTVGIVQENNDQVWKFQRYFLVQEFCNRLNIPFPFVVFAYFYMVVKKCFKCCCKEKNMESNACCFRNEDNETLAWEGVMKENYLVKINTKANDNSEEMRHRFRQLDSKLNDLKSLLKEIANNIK
# Test Protocol: whole-cell patch-clamp and thermodynamic mutant cycle analysis
# Assay Conditions: patch-clamp, peer review file
pEC50: −log10 of the molar value.

- Compound: "CC(C)[C@@H]1CC[C@@H](C)C[C@H]1O [menthol, (−)-menthol]"
  pEC50: 3.30

====

# Measurement Target: wild-type TRPM8 (Mus musculus, UniProt Q8R4D5)
# Sequence (Q8R4D5 whole entry): as the sequence (Q8R4D5 whole entry Y1005F) above, with F1005Y counted along it
# Test Protocol: whole-cell patch-clamp recording of ligand activation
# Assay Conditions: wild-type TRPM8; Hill equation fit of concentration–response, patch-clamp

- Molecule: "CC(C)[C@@H]1CC[C@@H](C)CC1=O [menthone, (−)-menthone]"
  Measurement Target: "wild-type TRPM8 (Mus musculus, UniProt Q8R4D5)"
  EC50 / µM: 813

====

# pKd per entry
# Measurement Target: wild-type TRPM8 (Mus musculus, UniProt Q8R4D5)
# Construct: expressed in transfected cells; host or cells: HEK293T
# Test Protocol: whole-cell patch-clamp recording of ligand activation
# Type: cell-based
# Assay Conditions: WT; calculated from concentration–response curves (EC50 and Po max); read-out: Kd, Ave
pKd: −log10 of the molar value.

- Molecule: "CC1CCCC(O)C1 (stereo not drawn)"
  pKd: 3.20
- Molecule: "CC(C)[C@@H]1CC[C@@H](C)C[C@H]1O [menthol, (−)-menthol]"
  pKd: 3.01
- Molecule: "C=C(C)[C@@H]1CC[C@@H](C)C[C@H]1O"
  pKd: 2.98
